The values you see were collected from patent US6069177A.

System name: human dopamine transporter (hDAT) (Homo sapiens)
Construct: expressed in transfected cells; membranes of cells expressing the cloned hDAT
Sequence (Q01959 whole entry): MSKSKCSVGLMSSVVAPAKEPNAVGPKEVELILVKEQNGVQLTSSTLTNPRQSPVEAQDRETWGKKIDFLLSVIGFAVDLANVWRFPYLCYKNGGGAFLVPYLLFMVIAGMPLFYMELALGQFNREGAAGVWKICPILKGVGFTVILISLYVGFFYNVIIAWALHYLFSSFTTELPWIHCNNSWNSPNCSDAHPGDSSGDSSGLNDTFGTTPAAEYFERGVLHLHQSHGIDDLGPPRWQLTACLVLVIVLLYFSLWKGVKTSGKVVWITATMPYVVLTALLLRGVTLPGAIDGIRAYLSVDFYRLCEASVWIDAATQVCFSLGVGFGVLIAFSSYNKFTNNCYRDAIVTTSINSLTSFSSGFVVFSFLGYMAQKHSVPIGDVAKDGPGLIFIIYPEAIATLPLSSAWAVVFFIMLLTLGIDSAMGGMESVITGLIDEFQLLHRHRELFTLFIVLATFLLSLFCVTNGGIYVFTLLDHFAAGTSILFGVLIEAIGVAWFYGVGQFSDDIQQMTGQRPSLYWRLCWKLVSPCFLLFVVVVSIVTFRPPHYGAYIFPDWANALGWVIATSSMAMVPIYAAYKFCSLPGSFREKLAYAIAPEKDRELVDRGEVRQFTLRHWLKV
Test summary: [3H]WIN35428 binding to cloned human DAT
Condition set: Kd (DA)/Kd (compound or drug) in the hDAT binding assay

- Compound: "CN(C)C[C@H](c1ccc2ccccc2c1)[C@H](O)c1ccccc1 (relative stereo)"
  hDAT Binding Potency: 34.3
- Compound: "NC[C@H](c1ccc2ccccc2c1)[C@H](O)c1ccccc1 (relative stereo)"
  hDAT Binding Potency: 16.8
- Compound: "CC(C)(C)[C@@H](O)[C@H](CN)c1ccc2ccccc2c1 (relative stereo)"
  hDAT Binding Potency: 0.09
- Compound: "COc1ccc([C@H](CN(C)C)[C@@H](O)C2CCCCC2)cc1.Cl (racemic)"
  hDAT Binding Potency: 0.69
- Compound: "CN(C)C[C@H](c1ccc2ccccc2c1)[C@H](O)C(C)(C)C (relative stereo)"
  hDAT Binding Potency: 7.16
